Catalogue of % Inhibition at 100 uM readings, one per entry.
- Tested on: p75 and trkA receptors
- assay-overview: Binding of [125I]NGF to PC12 cells in the presence and absence of BDNF
- test-parameters: 100 uM compound, 0.5 nM 125I-NGF
# output: bare number, implied unit %

The examples below pair each entry with its known result.
- molecule: "O=C1c2cccc3c([N+](=O)[O-])ccc(c23)C(=O)N1CCc1ccccn1 [6-Nitro-2-(pyrid-2-ylethyl)naphthalimide]"
  measured-endpoint: "% Inhibition at 100 uM"
  numeric-readout: 11
- molecule: "CCCCCCCCN1C(=O)c2cccc3cc([N+](=O)[O-])cc(c23)C1=O [N-Octyl-5-nitronaphthalimide]"
  measured-endpoint: "% Inhibition at 100 uM"
  numeric-readout: 29
- molecule: "CN1C(=O)c2cccc3cccc(c23)C1=O [N-Methylnaphthalimide]"
  measured-endpoint: "% Inhibition at 100 uM"
  numeric-readout: 11
- molecule: "CN(C)c1ccc2c3c(cccc13)C(=O)N(c1nc3ccccc3[nH]1)C2=O"
  measured-endpoint: "% Inhibition at 100 uM"
  numeric-readout: 36
- molecule: "O=C1c2cccc3cc(Br)cc(c23)C(=O)N1Cc1cccnc1"
  measured-endpoint: "% Inhibition at 100 uM"
  numeric-readout: 28

Query string: Look up % Inhibition at 100 uM: O=C1c2cccc3c([N+](=O)[O-])ccc(c23)C(=O)N1Cc1cccnc1 [6-Nitro-2-(pyrid-3-methyl)naphthalimide]
Result string: 23

Query string: Param item: O=C1c2cccc3cccc(c23)C(=O)N1CCO
Result string: 27

Query string: Param item: CCCCN1C(=O)c2cccc3cc(N)cc(c23)C1=O [5-Amino-N-butylnaphthalimide]
Result string: 13

Query string: Param item: NN1C(=O)c2cccc3cccc(c23)C1=O [Naphthalicacid-N-aminoimide]
Result string: 27

Query string: Param item: Cc1ccc(S(=O)(=O)Nc2cc(Cl)c(Cl)cc2N2C(=O)c3cccc4cccc(c34)C2=O)cc1
Result string: 26

----------
Catalogue of % Inhibition at 100 uM readings, one per entry.
- System: p75 and trkA receptors
- assay-overview: Binding of [125I]NGF to PC12 cells in the presence and absence of BDNF
- test-parameters: 100 uM compound, 0.5 nM 125I-NGF
# output: bare number, implied unit %

The examples below pair each entry with its known result.
- compound: "O=C1c2cccc3cccc(c23)C(=O)N1Nc1ccccc1 [N-Anilino-1,8-naphthalimide]"
  tested-on: "p75 and trkA receptors"
  measured-endpoint: "% Inhibition at 100 uM"
  value-unit: "%"
  numeric-readout: 1
- compound: "Cc1cc(C)cc(N2C(=O)c3cccc4cccc(c34)C2=O)c1 [N-(3,5-Dimethylphenyl)-1,8-naphthalimide]"
  tested-on: "p75 and trkA receptors"
  measured-endpoint: "% Inhibition at 100 uM"
  value-unit: "%"
  numeric-readout: 9
- compound: "O=C1c2cccc3c(Sc4ccccc4)ccc(c23)C(=O)N1CCO"
  tested-on: "p75 and trkA receptors"
  measured-endpoint: "% Inhibition at 100 uM"
  value-unit: "%"
  numeric-readout: 3
- compound: "O=C1c2cccc3cc([N+](=O)[O-])cc(c23)C(=O)N1CCc1ccccn1"
  tested-on: "p75 and trkA receptors"
  measured-endpoint: "% Inhibition at 100 uM"
  value-unit: "%"
  numeric-readout: 28
- compound: "O=C1CC2C=CC=C3C=CC=CC32C(=O)N1c1nc2ccccc2[nH]1 (stereo not drawn)"
  tested-on: "p75 and trkA receptors"
  measured-endpoint: "% Inhibition at 100 uM"
  value-unit: "%"
  numeric-readout: 23
- compound: "O=C1c2cccc3cc([N+](=O)[O-])cc(c23)C(=O)N1CC1CCCO1 (stereo not drawn)"
  tested-on: "p75 and trkA receptors"
  measured-endpoint: "% Inhibition at 100 uM"
  value-unit: "%"
  numeric-readout: 18
- compound: "O=C(O)CCN1C(=O)c2cccc3cc([N+](=O)[O-])cc(c23)C1=O"
  tested-on: "p75 and trkA receptors"
  measured-endpoint: "% Inhibition at 100 uM"
  value-unit: "%"
  numeric-readout: 25
- compound: "O=C1c2cccc3cccc(c23)C(=O)N1Cc1ccccn1 [N-(Pyrid-2-ylmethyl)naphthalimide]"
  tested-on: "p75 and trkA receptors"
  measured-endpoint: "% Inhibition at 100 uM"
  value-unit: "%"
  numeric-readout: 10

Continue with the compound presented below.
Query string: Look up % Inhibition at 100 uM: O=C(O)CN1C(=O)c2cccc3cc([N+](=O)[O-])cc(c23)C1=O
Result string: 58
